The measurements presented in this section are drawn from the OPERA property sets (Mansouri et al. 2018).

So basically every entry gets a class from its logP, ranges being low (below 1), intermediate (1 to below 2), high (2 or more)

In [3]: df
Out[3]:
                                   compound  assigned_category
0  OC(Cn1ccnc1)(c1cccc(Br)c1)c1ccc(F)cc1F (stereo not given)               high
1  CCCCCCCS[C@@H]1O[C@H](CO)[C@H](O)[C@H](O)[C@H]1O       intermediate
2  CCNC(=O)[C@@H](NC(=O)CNC(=O)c1ccccc1)C(C)C       intermediate
3  CCCN1Cn2c(nc3ccccc3c2=O)C1C (stereo not given)       intermediate
4  COC(=O)NC1=NCC(c2ccc(Cl)cc2)N1C (stereo not given)               high
5  Cc1cc2n(c1C(=O)c1ccc(Cl)cc1)CCC2C(=O)O (stereo not given)               high
6  CCCCCCCC(=O)n1cc(CC(NC(=O)CC2NC(=O)C3C4CCC(CC4)N3C2=O)C(=O)NC(Cc2ccccc2)C(=O)N(C)Cc2ccccc2)c2ccccc21 (stereo not given)               high
7  CCC(C(=O)OC(C)c1ccccc1)C(CO)Cc1cncn1C (stereo not given)               high

Exam item: Entry CC(=O)OCC1=C(C(=O)OCOC(=O)C(C)(C)C)N2C(=O)C(NC(=O)CSc3ccncc3)C2SC1 (stereo not given) belongs to which category?
Marked response: intermediate

Exam item: // same read-out, input: O=C(O)c1cc(O)nc(O)n1
Marked response: low

Exam item: // same read-out, input: CCc1[nH]ccc(=O)c1O
Marked response: low

Exam item: // same read-out, input: Cc1cc(=O)c(=O)[nH][nH]1
Marked response: low

Exam item: // same read-out, input: CNc1nnc(-c2cc(Cl)cc(Cl)c2)c(=O)n1N
Marked response: intermediate

Exam item: // same read-out, input: Clc1cccc(Cl)c1Cl
Marked response: high

Exam item: // same read-out, input: O=c1[nH]c(=O)n(Cc2ccc(Cl)cc2)cc1F
Marked response: intermediate
